# assay.explanation: NCI Yeast Anticancer Drug Screen. Data for the mec2-1 strain (AID 157)
# test.settings: S. cerevisiae mec2-1 strain, at 50.0 µM
Compounds without any hit were thinned out: in the full panel of roughly 79,000, 15% have a hit. The source made the active and inactive calls. Cut-off read from the data, not from the text of the source: active = growth inhibition above about 70%; inactive = the rest.
API: response.call in 1 (active), 0 (inactive)

query: Per the assay record, what outcome was assigned to O=C(CS(=O)(=O)O)Nc1ccccc1 ?
result: 0

query: Query CC/C(=C/c1ccc(OC)cc1)[N+](=O)[O-] next
result: 1

query: Query N#CC(C#N)=Cc1ccco1 next
result: 0

query: Query COC1=CCC2=C(CC[C@H]3[C@H]2CCP3C)C1 (stereo not given in full) next
result: 0

query: Query CCNC(=O)OOC(C)(C)C next
result: 0

query: Query O=C(Cc1ccccc1)OC1CCCC1 next
result: 0

query: Query CC(C)(C)NC(=O)CCl next
result: 0

query: Query O=[N+]([O-])c1ccc(C2C3CC4C(OOC42)C3I)cc1 (stereo not given) next
result: 0

query: Query Cc1cc(Cl)ccc1OC(C)C(=O)O (stereo not given) next
result: 0

query: Query O=C(COc1ccc(Cl)c(Cl)c1)Nc1cccc(S(=O)(=O)F)c1 next
result: 0

query: Query N#Cc1cc([N+](=O)[O-])c(Cl)c([N+](=O)[O-])c1 next
result: 1

query: Query CC1NCCc2c1[nH]c1cc(O)ccc21 (stereo not given) next
result: 0

query: Query CNC(=O)Oc1ccccc1C(N)=O next
result: 0

query: Query c1ccc(-c2ccc([As](c3ccccc3)c3ccccc3)cc2)cc1 next
result: 0

query: Query CN1C[C@H]2[C@@H](C1=O)[C@H](c1ccccc1)ON2C next
result: 0

---

# assay.explanation: NCI Yeast Anticancer Drug Screen. Data for the rad50 strain (AID 155);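 note: 0% = growth of vehicle-only cultures of the same strain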
# test.settings: S. cerevisiae rad50 strain growth inhibition; at 50.0 µM (retest, dose inferred, filed as 5.0); active compounds read high
About 79,000 compounds went through this panel and 15% of them were active in at least one assay; those are over-represented in the sample as a whole.
outcome.measure: growth inhibition (%)
Write the value in % as a bare number.

query: Dear colleague, I am looking for the recorded growth inhibition of the following compound: CCO[C@@H]([CH2][Hg][Cl])[C@](C)([CH2][Hg][Cl])OCC
result: 99

query: Query O=C1C(Cl)=C(Cl)C(=O)c2ccccc21 next
result: 96

query: Query CC1(C)N=C(N)N=C(N)N1c1ccc(OCC(=O)Nc2cccc(S(=O)(=O)F)c2)c(Cl)c1 next
result: 38

query: Query COC(=O)[C@]1(C)CCC[C@]2(C)[C@H]3CC4OO[C@@]3(CC[C@H]21)[C@H]1O[C@@]41C(C)C next
result: 99

query: Query O=c1ccc(N=Cc2ccc(N(CCCl)CCCl)cc2)ccc1O next
result: 93

---

# assay.explanation: NCI Yeast Anticancer Drug Screen. Data for the mec2-1 strain (AID 157)
# test.settings: S. cerevisiae mec2-1 strain, at 50.0 µM
Compounds without any hit were thinned out: in the full panel of roughly 79,000, 15% have a hit. The source made the active and inactive calls. Rule as the data show it: active = growth inhibition above about 70%; inactive = the rest.
API: response.call in true for active, false for inactive

query: Per the assay record, what outcome was assigned to CCOc1ccc(OCC)c(C(O)C(C)NC(C)C)c1 (stereo unspecified) ?
result: false

query: Query FC(F)(F)C1(F)N(Cc2ccccc2)C1(F)C(F)(F)F (stereo unspecified) next
result: false

query: Query NC(CNC(=O)CBr)C(=O)O (stereo unspecified) next
result: false

query: Query N#CC(C#N)c1ccccc1 next
result: false

query: Query CO/C1=C\C(C)=C\C(C)C(O)C(C)C/C(C)=C/C=C/C(OC)C(C(C)C(O)C(C)C2(O)CC(O)C(C)C(C(C)C)O2)OC1=O (stereo unspecified) next
result: true

query: Query Fc1ccc(C(Cl)(Cl)Cl)cc1 next
result: false

---

# assay.explanation: NCI Yeast Anticancer Drug Screen. Data for the sgs1 mgt1 strain (AID 161);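 note: 0% = growth of cultures given vehicle only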
# test.settings: S. cerevisiae sgs1 mgt1 strain, at 5.0 µM (retest, dose inferred, filed as 0.5), active compounds read high
# Experimental: Growth inhibition of yeast strains with defined genetic alterations is measured as a screen for potential anti-cancer activity. Selected strains with alterations in DNA damage repair or cell cycle control were exposed to compounds and growth inhibition was measured relative to vehicle treated controls. The strain used in this assay is sgs1 mgt1
The panel holds about 79,000 compounds, 15% with a hit somewhere; the sample as a whole holds those more often. The source made the active and inactive calls. Rule as the data show it: active = growth inhibition above about 70%; inactive = the rest.
outcome.measure: growth inhibition

query: Dear colleague, I am looking for the recorded growth inhibition of the following compound: COc1cc(/C=C(/C)[N+](=O)[O-])ccc1O
result: 42% (inactive)

query: Query O=C([CH-]C(=O)c1ccccc1)c1ccccc1.O=C([CH-]C(=O)c1ccccc1)c1ccccc1.O=C([CH-]C(=O)c1ccccc1)c1ccccc1.[Nd+3].[OH3+] next
result: 55% (inactive)

query: Query O=C1C(C(Nc2ccccc2)c2ccccc2)=C([O-])c2ccccc21.O=C1C(C(Nc2ccccc2)c2ccccc2)=C([O-])c2ccccc21.[Ni+2] (stereo not given) next
result: 49% (inactive)

query: Query CCC[CH2][Sn]1([CH2]CCC)[O]CC(C)[O]1 (stereo not given) next
result: 42% (inactive)

query: Query COc1cc2c(cc1OC)C(OC)N(C)c1c-2ccc2cc3c(cc12)OCO3 (stereo not given) next
result: 7% (inactive)

query: Query O=C(N/N=C/c1cc(Br)cc(Br)c1[O-])c1ccccc1O.O=C(N/N=C/c1cc(Br)cc(Br)c1[O-])c1ccccc1O.[Co+2] next
result: 91% (active)

query: Query O=C1OCC2CC3C4C=CC(C4)C3C12 (stereo not given) next
result: 69% (inactive)

query: Query Cc1ccc(C(=O)C2C(c3ccccc3)N2C2CCCCC2)cc1 (stereo not given) next
result: -1% (inactive)

query: Query S=P(OC1CC2CCC1C2)(c1ccccc1)c1ccccc1 (stereo not given) next
result: 86% (active)

query: Query Nc1cc2[nH]cnc2c([Se])n1 next
result: -54% (inactive)

---

Provide the reported growth inhibition of each item.
# assay.explanation: NCI Yeast Anticancer Drug Screen. Data for the mec2-1 strain (AID 157)
# test.settings: S. cerevisiae mec2-1 strain, at 50.0 µM, active compounds read high
Compounds without any hit were thinned out: in the full panel of roughly 79,000, 15% have a hit.
Write the value in % as a bare number.

query: Dear colleague, I am looking for the recorded growth inhibition of the following compound: CC(=O)c1ccc(-[n+]2c(C)cc(-c3ccccc3)cc2C)cc1
result: -7.4

query: Query C1CC[N-]CC1.CC(=N\O)/C(C)=N/O.CC(=N\O)/C(C)=N/O.C[C-]=O.[Co+2] next
result: 18.4

query: Query CNC(C)Cc1ccccc1OC (stereo not given) (tested in a mixture with another compound) next
result: 1.9

query: Query CS(=O)(=O)OC1C2CC(C1OS(C)(=O)=O)C(c1ccccc1)C2C(=O)O (stereo not given) next
result: 21

query: Query COC(=O)C(N)Cc1ccc(OC)c(N(CCCl)CCCl)c1 (stereo not given) next
result: -0.6

query: Query CCOP(=O)(Oc1ccc([N+](=O)[O-])cc1)c1cccc(Br)c1 (stereo not given) next
result: 19.5

query: Query O=[N+]([O-])c1ccc(OCc2ccc(COc3ccc(S(=O)(=O)F)cc3)cc2)c(Cl)c1 next
result: -8.15

query: Query CC(NCCO)C(O)c1ccccc1 (stereo not given) next
result: -42.5

query: Query CC(C)CCCCCc1ccc(OCCOc2ccc(C(=O)Nc3ccc(S(=O)(=O)F)cc3[N+](=O)[O-])cc2)cc1 next
result: -8.75

query: Query CC(C)(C[N+](=O)[O-])C[N+](=O)[O-] next
result: -34.1

---

Provide the reported growth inhibition of each item.
# assay.explanation: NCI Yeast Anticancer Drug Screen. Data for the rad50 strain (AID 155);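 note: 0% = growth of vehicle-only cultures of the same strain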
# test.settings: S. cerevisiae rad50 strain growth inhibition; at 50.0 µM (retest, dose inferred, filed as 5.0); active compounds read high
Compounds without any hit were thinned out: in the full panel of roughly 79,000, 15% have a hit.
Write the value in % as a bare number.

query: Dear colleague, I am looking for the recorded growth inhibition of the following compound: Cc1cc2c(cc1O)C(C)(C)CCC2(C)C
result: 70

query: Query COC1CC(C)C(OC)C2=CC(=O)C=C(NC(=O)/C(C)=C/C=C\C(C)C(OC(N)=O)/C(C)=C\C(C)C1OC)C2=O (centres undefined) next
result: 98

query: Query CC[CH](C)[Sn](=[O])[c]1ccccc1 (centres undefined) next
result: 95

query: Query CCC[CH2][Sn]([CH2]CCC)([O]C(=O)CCC(C)=O)[O]C(=O)CCC(C)=O next
result: 98

query: Query Oc1c(Cl)cc(Cl)c2ccccc12.[Cu+2] next
result: 91

query: Query COc1ccccc1/C=C/[N+](=O)[O-] next
result: 98

query: Query CCOP(=S)(OCC)SSSP(=S)(OCC)OCC next
result: 71

query: Query [Cl][Pt][Cl].c1ccc([AsH](CC[AsH](c2ccccc2)c2ccccc2)c2ccccc2)cc1 next
result: 99

query: Query N#CC1CC[CH-]CC1.[Cl-].[Cl-].[Cl-].[Cl-].[Cl-].[Sb+5].c1ccncc1 next
result: 98

query: Query CC(=O)c1ccc([As]=O)cc1 (centres undefined) next
result: 100

query: Query Cc1ccc2c(C)c3ccc4ccccc4c3c[n+]2c1 next
result: 94

query: Query CC1(C)CC2(c3ccccc3)CC(c3ccccc3)C1C(C(=O)O)C2C(=O)O (centres undefined) next
result: 99

query: Query CC(C)(C)OOC(=O)/C=C\C(=O)OOC(C)(C)C next
result: -1

query: Query CC(=O)[C-](I)C(C)=O.CC(=O)[C-](I)C(C)=O.CC(=O)[C-](I)C(C)=O.[Ru+3] next
result: 90

query: Query C[CH2][Pb]([CH2]C)([CH2]C)[O]C(C)=O next
result: 48

query: Query [N-]=[N+]=NC1(N=[N+]=[N-])C(=O)NN=C(c2ccccc2)C1=O (centres undefined) next
result: 87

query: Query CC(=O)[O][Hg][c]1c(C)c(C)cc(C)c1C next
result: 96

query: Query CCCCCCCCCC(=O)[O][Hg][c]1ccccc1 next
result: 99

query: Query Cc1cccc(C)c1N=C(N)N[N+](=O)[O-] next
result: 96

query: Query Nc1nc2ncnc(N)c2nc1-c1ccc(N(CCCl)CCCl)cc1 next
result: 46

query: Query O=C(O)C(F)(F)C(F)(F)C(=O)O next
result: -3

query: Query CC[C@@]1(O)C(=O)OCc2c1cc1n(c2=O)Cc2cc3c(OC)cccc3nc2-1 next
result: 92

query: Query O=C1c2ccccc2CCC1Br (centres undefined) next
result: 99

query: Query CN(C)C(=S)Nc1nnc(NC23CC4CC(CC(C4)C2)C3)s1 next
result: 61
